Record set of log10 Ki for target or system CB2 (Homo sapiens, UniProt P34972).
// units: nM (pre-log); metric: Ki; scale: log10

Consider the worked cases shown below.
>>> print(df.to_string())
                                   molecule                              system  reported
0  CCCCn1cc(C(=O)NC2CCCC2)c(=O)c2cccc(OC)c21  CB2 (Homo sapiens, UniProt P34972)      1.29
1  COc1cccc2c(=O)c(C(=O)NC(C)(C)C)cn(CCCF)c12  CB2 (Homo sapiens, UniProt P34972)      2.88
2  CCCCn1cc(C(=O)NC(C)(C)C)c(=O)c2cccc(OC)c21  CB2 (Homo sapiens, UniProt P34972)      0.91
3  CCOCCn1cc(C(=O)NC23CC4CC(CC(F)(C4)C2)C3)c(=O)c2cccc(OC)c21  CB2 (Homo sapiens, UniProt P34972)      0.32
4  CCCCn1cc(C(=O)NC23CC4CC(CC(C4)C2)C3)c(=O)c2cccc(OC)c21  CB2 (Homo sapiens, UniProt P34972)      0.52

Entry CCOCCn1cc(C(=O)NCCc2ccccc2)c(=O)c2cccc(OC)c21 ; log10 Ki = 2.56

Entry CCCCn1cc(C(=O)NCC2CC2)c(=O)c2cccc(OC)c21 ; log10 Ki = 1.90

Entry CCCCCn1cc(C(=O)NC23CC4CC(CC(C4)C2)C3)c(=O)c2cccc(OC)c21 ; log10 Ki = 0.23

Entry CCOCCn1cc(C(=O)NC23CC4CC(CC(O)(C4)C2)C3)c(=O)c2cccc(OC)c21 ; log10 Ki = -0.10

Entry CCOCCn1cc(C(=O)NC23CC4CC(CC(C4)C2)C3)c(=O)c2cccc(OCCF)c21 ; log10 Ki = 1.86

Entry COc1cccc2c(=O)c(C(=O)NC34CC5CC(CC(C5)C3)C4)cn(CCOCCF)c12 ; log10 Ki = 0.08
